# experimental details: Determining the solubility (saturated solution in McIlvaine buffer pH 7.4, UV spectroscopy)
# Assay type: physicochemical
# condition label: pH 7.4, aqueous buffer, thermodynamic from solid, shaken 2 hours, 0.75 mg solid in 0.75 ml
Quick rule for you: solubility at 2 h at 100 µg/mL or higher means true (1), lower means false (0).

{"molecule": "COc1c(NC(=O)c2cc3cccc(CN4CCN(C(=O)CN5CCN(C)CC5)CC4)c3n2C)cc(C(C)(C)C)cc1NS(C)(=O)=O", "group": "false (0)"}
{"molecule": "COc1c(NC(=O)c2cc3cccc(CC4CCN(C(=O)[C@H]5CCCN5C)CC4)c3n2C)cc(C(C)(C)C)cc1NS(C)(=O)=O", "group": "true (1)"}
{"molecule": "COc1c(NC(=O)c2cc3cccc(CN4CCN(C(=O)CN5CC[C@H](N(C)C)C5)CC4)c3n2C)cc(C(C)(C)C)cc1NS(C)(=O)=O", "group": "true (1)"}
{"molecule": "COc1c(NC(C)=O)cc(C(C)(C)C)cc1NC(=O)c1cc2cccc(CN3CCN(C(=O)[C@@H]4CCCN4C)CC3)c2n1C", "group": "true (1)"}
{"molecule": "COc1c(NC(=O)c2cc3cccc(CN4CCN(C(=O)CN5CC[C@H](O)C5)CC4)c3n2C)cc(C(C)(C)C)cc1NS(C)(=O)=O", "group": "false (0)"}
{"molecule": "CCCC(=O)Nc1cc(C(C)(C)C)cc(NC(=O)c2cc3cccc(CN4CCN(C(=O)[C@@H]5CCCN5C)CC4)c3n2C)c1OC", "group": "false (0)"}
{"molecule": "COc1c(NC(=O)c2cc3cccc(CN4CCN(C(=O)[C@H]5C[C@H](O)CN5C)CC4)c3n2C)cc(C(C)(C)C)cc1NS(C)(=O)=O", "group": "false (0)"}
{"molecule": "COc1c(NC(=O)c2cc3cccc(CN4CCN(C(=O)[C@@H]5CCCN5C)CC4)c3n2C)cc(C(C)(C)C)cc1C(=O)N(C)C", "group": "true (1)"}
{"molecule": "COc1c(NC(=O)c2cc3cccc(CN4CCN(C(=O)CN5CCC(N(C)C)CC5)CC4)c3n2C)cc(C(C)(C)C)cc1NS(C)(=O)=O", "group": "true (1)"}
{"molecule": "COc1c(NC(=O)c2cc3cccc(CN4CCN(C(=O)[C@H]5CCN(C)C5)CC4)c3n2C)cc(C(C)(C)C)cc1NS(C)(=O)=O", "group": "true (1)"}
{"molecule": "COc1c(NC(=O)c2cc3cccc(CC4CCN(C(=O)[C@@H]5CCCN5C)CC4)c3n2C)cc(C(C)(C)C)cc1NS(C)(=O)=O", "group": "true (1)"}
{"molecule": "COc1c(NC(=O)c2cc3cccc(CN4CCN(C(=O)C5(C)CC5)CC4)c3n2C)cc(C(C)(C)C)cc1NS(C)(=O)=O [Vb, reference compound]", "group": "false (0)"}
{"molecule": "COc1c(NC(=O)c2cc3cccc(CN4CCCN(C(=O)[C@@H]5CCCN5C)CC4)c3n2C)cc(C(C)(C)C)cc1NS(C)(=O)=O", "group": "true (1)"}
{"molecule": "COc1c(NC(=O)c2cc3cccc(CC4CCCN(C(=O)[C@H]5CCCN5C)CC4)c3n2C)cc(C(C)(C)C)cc1NS(C)(=O)=O (some centres unmarked)", "group": "true (1)"}
{"molecule": "CCC(C)c1cc(NC(=O)c2cc3cccc(CN4CCN(C(=O)[C@@H]5CCCN5C)CC4)c3n2C)c(OC)c(NS(C)(=O)=O)c1 (some centres unmarked)", "group": "true (1)"}
{"molecule": "COc1c(NC(=O)c2cc3cccc(CN4CCN(C(=O)[C@@H]5CCCN5C)CC4)c3n2C)cc(C(C)(C)C)cc1C(N)=O", "group": "true (1)"}
{"molecule": "CCCS(=O)(=O)Nc1cc(C(C)(C)C)cc(NC(=O)c2cc3cccc(CN4CCN(C(=O)[C@@H]5CCCN5C)CC4)c3n2C)c1OC", "group": "false (0)"}
